Reference source: ChEMBL document CHEMBL2321845

tested on: PC-3; experiment: Cytotoxicity against human PC3 cells assessed as growth inhibition after 96 hrs by SRB assay; assay type: functional, cell-based; conditions: PC-3, 96 h
Each entry below lists one item and its recorded IC50 value.

line.notation: O=C(c1ccc(F)cc1)c1nc(-c2ccc(F)cc2)c[nH]1
IC50: > 50 µM

line.notation: O=C(c1ccc(Cl)cc1)c1nc(-c2ccc(Cl)cc2)c[nH]1
IC50: > 50 µM

line.notation: O=C(c1ccc(C(F)(F)F)cc1)c1nc(-c2ccc(C(F)(F)F)cc2)c[nH]1
IC50: > 50 µM

###

Form field: pIC50 (one value per entry).
assay: Cytotoxicity against human MDA-MB-435/LCC6MDR1 cells assessed as growth inhibition after 48 hrs by SRB assay; assay type: functional, cell-based, MDA-MB-435/LCC6 MDR1; conditions: Homo sapiens, MDA-MB-435/LCC6 MDR1, 48 h
pIC50: −log10 of the molar value.

line.notation: COc1cc(Cc2nc(-c3ccccc3)c(-c3ccccc3)[nH]2)cc(OC)c1OC
censoring.operator: <
pIC50: 4.30
//
line.notation: COc1cc(-c2c[nH]c(C(=O)c3ccc(O)cc3)n2)cc(OC)c1OC
censoring.operator: <
pIC50: 4.30
//
line.notation: COc1ccc(C(=O)c2nc(-c3ccc(OC)cc3)c[nH]2)cc1
censoring.operator: <
pIC50: 4.30
//
line.notation: O=C(c1ccccc1)c1nc(-c2ccccc2)c[nH]1
censoring.operator: <
pIC50: 4.30
//
line.notation: COc1cc(C(=O)c2c[nH]c(-c3ccc(C(C)C)cc3)n2)cc(OC)c1OC
censoring.operator: =
pIC50: 6.60
//
line.notation: O=C(c1ccc(C(F)(F)F)cc1)c1nc(-c2ccc(C(F)(F)F)cc2)c[nH]1
censoring.operator: =
pIC50: 4.58
//
line.notation: COc1cc(C(=O)c2nc(-c3ccc(F)cc3)c[nH]2)cc(OC)c1OC
censoring.operator: =
pIC50: 6.58
//
line.notation: COc1cc(C(=O)c2nc(-c3ccccc3)cn2C)cc(OC)c1OC
censoring.operator: =
pIC50: 7.74
//
line.notation: COc1cc(-c2c[nH]c(C(=O)c3ccccc3)n2)cc(OC)c1OC
censoring.operator: =
pIC50: 5.24
//
line.notation: COc1cc(C(=O)c2nc(-c3ccccc3)c[nH]2)cc(OC)c1OC
censoring.operator: =
pIC50: 7.96
//
line.notation: COc1cc(C(=O)c2nc(-c3ccc(Cl)cc3)c[nH]2)cc(OC)c1OC
censoring.operator: =
pIC50: 7.12
//
line.notation: COc1cc(C(=O)c2nc(-c3ccccc3)c(C)[nH]2)cc(OC)c1OC
censoring.operator: =
pIC50: 5.80
//
line.notation: CCc1[nH]c(Cc2cc(OC)c(OC)c(OC)c2)nc1-c1ccccc1
censoring.operator: <
pIC50: 4.30
//
line.notation: COc1cc(C(=O)c2nc(-c3ccccc3)cn2Cc2ccccc2)cc(OC)c1OC
censoring.operator: =
pIC50: 6.81
//
line.notation: COc1cc(C(=O)c2nc(-c3ccc(O)cc3)c[nH]2)cc(OC)c1OC
censoring.operator: =
pIC50: 6.34
//
line.notation: O=C(c1ccc(O)cc1)c1nc(-c2ccc(O)cc2)c[nH]1
censoring.operator: =
pIC50: 4.67
//
line.notation: COc1cc(C(=O)c2nc(-c3ccccc3)cn2C2CCCC2)cc(OC)c1OC
censoring.operator: =
pIC50: 6.79

###

assay: Cytotoxicity against human MDA-MB-435/LCC6MDR1 cells assessed as growth inhibition after 48 hrs by SRB assay; format: functional, cell-based, MDA-MB-435/LCC6 MDR1; conditions: Homo sapiens, MDA-MB-435/LCC6 MDR1, 48 h

line.notation: O=C(c1ccc(Cl)cc1)c1nc(-c2ccc(Cl)cc2)c[nH]1
IC50: > 50 µM
--
line.notation: O=C(c1ccc(F)cc1)c1nc(-c2ccc(F)cc2)c[nH]1
IC50: > 50 µM
--
line.notation: CN(C)c1ccc(C(=O)c2nc(-c3ccc(N(C)C)cc3)c[nH]2)cc1
IC50: > 50 µM
